Target: Type-1 angiotensin II receptor (Homo sapiens, UniProt P30556)
Sequence (P30556 whole entry): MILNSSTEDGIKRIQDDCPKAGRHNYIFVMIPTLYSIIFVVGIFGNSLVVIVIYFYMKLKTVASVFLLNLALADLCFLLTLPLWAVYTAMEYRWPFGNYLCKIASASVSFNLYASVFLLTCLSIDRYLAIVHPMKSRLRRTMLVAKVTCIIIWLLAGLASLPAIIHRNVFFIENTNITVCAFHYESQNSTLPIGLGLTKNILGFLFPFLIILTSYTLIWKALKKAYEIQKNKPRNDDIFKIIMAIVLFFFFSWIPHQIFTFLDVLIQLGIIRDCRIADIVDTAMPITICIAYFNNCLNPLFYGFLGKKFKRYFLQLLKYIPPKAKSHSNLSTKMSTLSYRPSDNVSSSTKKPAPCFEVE
Assay: Inhibition of human AT1 receptor
Observable: Ki (nM)
Answer in nM, number only, no unit symbol.

Q: Given the entry Cc1cc(Cn2cnc3c2C[C@@H](C(=O)O)N(C(=O)C(c2ccccc2)c2ccccc2)C3)ccc1N(C)C , report its measured Ki.
Result: 12

---

Target: UniProt:P25095
Experiment: Displacement of [125I]Ang II from AT1 receptor in rat liver membranes
Type: cell membranes
Observable: Ki (nM)
Write the number in nM without appending the unit.

Q: Reported Ki for CCCCOC(=O)NS(=O)(=O)c1sc(CC(C)C)cc1-c1ccc(Cn2c(CC)nc3c(C)cc(C)nc32)cc1 : what is it?
Result: 3.9

---

Molecular target: Type-1 angiotensin II receptor (Homo sapiens, UniProt P30556)
Sequence (P30556 whole entry): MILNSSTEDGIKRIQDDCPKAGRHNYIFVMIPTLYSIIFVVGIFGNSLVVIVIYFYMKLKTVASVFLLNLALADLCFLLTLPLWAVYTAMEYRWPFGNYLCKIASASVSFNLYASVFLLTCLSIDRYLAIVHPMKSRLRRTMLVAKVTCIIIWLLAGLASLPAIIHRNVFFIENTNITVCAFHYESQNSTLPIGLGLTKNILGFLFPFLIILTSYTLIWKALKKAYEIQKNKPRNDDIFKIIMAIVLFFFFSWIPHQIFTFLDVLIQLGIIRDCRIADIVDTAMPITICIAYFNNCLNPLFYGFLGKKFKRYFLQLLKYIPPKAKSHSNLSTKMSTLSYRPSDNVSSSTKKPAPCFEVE
Observable: IC50 (µM)
The answer is to be given in µM; state only the numeric part.

Q: # get_value(readout='IC50', item= COc1ccc2c(c1OCc1ccccc1)C[C@H](C(=O)O)N(C(=O)C(c1ccccc1)c1ccccc1)C2 )
Result: 1.1

---

Biological target: Type-1 angiotensin II receptor A (Rattus norvegicus)
Sequence (P25095 whole entry): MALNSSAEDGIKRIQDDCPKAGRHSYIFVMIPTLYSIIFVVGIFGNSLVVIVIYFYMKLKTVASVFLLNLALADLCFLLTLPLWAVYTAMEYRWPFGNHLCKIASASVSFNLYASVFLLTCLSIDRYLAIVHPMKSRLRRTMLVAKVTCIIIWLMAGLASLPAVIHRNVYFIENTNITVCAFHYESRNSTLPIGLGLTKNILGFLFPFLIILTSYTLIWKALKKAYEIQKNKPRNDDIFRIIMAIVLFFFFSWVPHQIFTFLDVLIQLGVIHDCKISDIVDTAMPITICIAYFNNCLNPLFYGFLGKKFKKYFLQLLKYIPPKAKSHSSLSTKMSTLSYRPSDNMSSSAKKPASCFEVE
Experiment: Inhibition of rat AT1 receptor
Observable: IC50 (µM)
Use µM as the unit, but write only the number.

Q: What measured IC50 goes with COc1ccc2c(c1OCc1ccccc1)CC(C(=O)O)N(C(=O)C(c1ccccc1)c1ccccc1)C2 (stereo unspecified) ?
Result: 2900

---

Molecular target: Proto-oncogene Mas (Homo sapiens, UniProt P04201)
Sequence (P04201 whole entry): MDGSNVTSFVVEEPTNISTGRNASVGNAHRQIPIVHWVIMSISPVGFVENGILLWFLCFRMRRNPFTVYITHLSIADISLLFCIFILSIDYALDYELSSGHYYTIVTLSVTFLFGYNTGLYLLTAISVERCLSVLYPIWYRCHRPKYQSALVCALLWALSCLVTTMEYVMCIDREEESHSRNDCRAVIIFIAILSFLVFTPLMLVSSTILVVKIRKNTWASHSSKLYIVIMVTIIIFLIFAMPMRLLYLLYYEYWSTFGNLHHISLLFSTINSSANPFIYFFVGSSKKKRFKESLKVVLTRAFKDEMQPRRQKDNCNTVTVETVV
Assay: Agonist activity at N-terminal c-Myc tagged human MasR expressed in HEK293T cells assessed as reduction in forskolin-induced cAMP accumulation
Format: functional, cell-based
Observable: pIC50
# reply with the number alone; pIC50 is -log10 of concentration in mol/L

Q: Form field: pIC50 recorded for CCNC(=O)NS(=O)(=O)c1sc(CC(C)C)cc1-c1ccc(Cn2c(-c3ccccc3)nc(OC)c2C=O)cc1 with Proto-oncogene Mas (Homo sapiens, UniProt P04201) (enter value)
Result: 7.68

---

Experiment: Displacement of [125I]Ang II from AT2 receptor in pig uterus membranes
Assay type: cell membranes, Sus scrofa
Observable: pKi
Scale for pKi: -log10 of concentration given in mol/L; no unit attached.

Q: Which pKi value is on record for CCCCOC(=O)NS(=O)(=O)c1sc(CC(C)C)cc1-c1ccc(Cn2c(CC)nc3c(C)cc(C)nc32)cc1 ?
Result: 8.55
